B1: glmS ribozyme (parent)
chain: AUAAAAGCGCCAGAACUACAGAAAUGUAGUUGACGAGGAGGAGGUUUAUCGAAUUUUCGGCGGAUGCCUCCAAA

- Variants of: B1
- assay procedure: self-cleavage kobs at 40 uM GlcN6P; higher = faster cleavage; RNA array
- study conditions: with glucosamine-6-phosphate
Fewer inactive variants are shown than the library holds.
I'd appreciate it if you could supply self-cleavage kobs at 40 uM GlcN6P values for the items below.

A selection of reference data follows.
AUAAAAGCGCCAGACCUACAGAAAUGUAGUUGACGAGGAGGAGGUUUAUGGAGUUUUCGGCAGAUGCCUGCAAA [A15C C50G A53G G62A C70G]
0.000105 s⁻¹
AUAAAAGCGCCAGAACUACAGAAAUGUAGUUGACGAGGAGGAGGUUUAUCGAACUUUCGGCGGAAGCCUCCAAA [U54C U65A]
6.51e-05 s⁻¹
AUAAAAGCGCCCGAACUACAGAAAUGUAGUUGACGCGGAGGAGGUUUAUCGAAGUUUCGGCGGAUGCCUCCAAA [A12C A36C U54G]
< 1e-05 s⁻¹

Could I get self-cleavage kobs at 40 uM GlcN6P for every one of these entries?
1. AUAAAAGCGCCAGAACUACAGAAAUGUAGUUGACGAGGAGGAGGUUUAUCGAAUUUUCGGCGGCUGCAUCCAAA [A64C C68A]
2. AUAAAAGCGCCAGAACUACAGAAAUGUAGGUGACGAGGAGGAGGUUUGUCGAAUUUUCGGCGGAUGCCUCUAAA [U30G A48G C71U]
3. AUAAAAGCGGCAGAACUACAGAAAUGUAGUUGGCGAGGAGGAGGUUUAUCGUAUUUUUGGCGGUUGCCUCCAAA [C10G A33G A52U C58U A64U]
4. AUAAAAGCGCCAGAACUACAGAAAUGUAGUUUACGAGGAGGACGUUUAUCGAAUUUUCGGCGGAUGCCUCCAAA [G32U G43C]

Result:
1: < 1e-05 s⁻¹; 2: < 1e-05 s⁻¹; 3: < 1e-05 s⁻¹; 4: < 1e-05 s⁻¹

Could I get self-cleavage kobs at 40 uM GlcN6P for every one of these entries?
1. AUAAAAGCGGCAGAACUACAGAAAUGUAGUUGACGAGGAGGAGGUUUAUGGAAUUUUCGGCGAAUGCCUCUAAA [C10G C50G G63A C71U]
2. AUAAAAGCGCCAGAACUACAGAAAUGUAGUUGACGAGAAGGAGGUUUAUCUUAUUUUCGGCGGAUGCCUCCAAA [G38A G51U A52U]
3. AUAAAAGCGCCAGAACUACAGAAAUGUAGUUGCCGAGGAGGAGGUUUUUCGAAUUUUCGGCGGAUGCCUCCAAA [A33C A48U]

Result:
1: 6.86e-05 s⁻¹; 2: < 1e-05 s⁻¹; 3: < 1e-05 s⁻¹

Could I get self-cleavage kobs at 40 uM GlcN6P for every one of these entries?
1. AUAAAAGCGCCAGAGCUACAGAAAUGUAGUUGACGAGGAGGAGGUUUAUCGAAUUUUCGGCGGAUCCCUCCAAA [A15G G66C]
2. AUAAAAGCGCCAGGACUACAGAAAUGUAGUUGACGAAGAGGAGGUUUAUCGAAUUUUCGGCGUAUGCCUCCAAA [A14G G37A G63U]
3. AUAAAAGCGCCAGAAAUACAGAAAUGUAGUUGACGAGGAGGAGGUUUAUCGAAGUUUCGGCGGAUGCCUCCAAA [C16A U54G]
4. AUAAAAGGGCCAUAACUACAGAAAUGUAGCUGACGAGGAGGAUGUUUAUCGAAUUUUCGGCGGAUGCCUCCAAA [C8G G13U U30C G43U]

Result:
3.37e-05 s⁻¹
< 1e-05 s⁻¹
4.66e-05 s⁻¹
< 1e-05 s⁻¹
